Biological target: α7-subtype of nicotinic receptors (Rattus norvegicus)
Sequence (Q05941 23-502): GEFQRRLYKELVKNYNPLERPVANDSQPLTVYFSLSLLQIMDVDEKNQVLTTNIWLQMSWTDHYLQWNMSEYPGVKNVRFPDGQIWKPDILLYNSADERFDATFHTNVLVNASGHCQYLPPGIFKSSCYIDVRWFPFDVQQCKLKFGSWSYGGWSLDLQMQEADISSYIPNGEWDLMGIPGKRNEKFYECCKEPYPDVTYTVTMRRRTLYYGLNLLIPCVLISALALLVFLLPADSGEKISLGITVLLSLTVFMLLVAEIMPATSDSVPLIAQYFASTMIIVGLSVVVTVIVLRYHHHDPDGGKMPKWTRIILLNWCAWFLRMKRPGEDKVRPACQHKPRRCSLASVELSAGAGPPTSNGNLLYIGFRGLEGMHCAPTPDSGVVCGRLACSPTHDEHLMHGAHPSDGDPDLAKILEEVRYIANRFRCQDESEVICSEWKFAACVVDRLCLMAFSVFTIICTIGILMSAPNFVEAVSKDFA
pIC50: −log10 of the molar value.
Is pIC50 at least 7? Then T. If not, F.

Asked: Can O=C(O)/C=C/C(=O)O.c1ccc2sc(OC3CN4CCC3CC4)nc2c1 (racemic) [Compound B3] be said to have pIC50 at or above 7?
Given back: F

Asked: Can O=C(O)/C=C/C(=O)O.c1cncc(-c2cnc(OC3CN4CCC3CC4)s2)c1 (racemic) [Compound D6] be said to have pIC50 at or above 7?
Given back: F

Asked: Can O=C(O)/C=C/C(=O)O.c1csc(-c2cnc(OC3CN4CCC3CC4)s2)c1 (racemic) [Compound D4] be said to have pIC50 at or above 7?
Given back: T

Asked: Can O=C(O)/C=C/C(=O)O.c1csc(-c2ccc(OC3CN4CCC3CC4)nn2)c1 (racemic) [Compound D8] be said to have pIC50 at or above 7?
Given back: T

Asked: Can O=C(O)/C=C/C(=O)O.c1ccc(-c2cnc(OC3CN4CCC3CC4)s2)cc1 (racemic) [Compound D1] be said to have pIC50 at or above 7?
Given back: T

Asked: Can Clc1ccc2nc(OC3CN4CCC3CC4)sc2c1.O=C(O)/C=C/C(=O)O (racemic) [Compound B2] be said to have pIC50 at or above 7?
Given back: F
